Target: hITK enzyme (FLAG-tagged full-length hITK) (Homo sapiens, UniProt Q08881)
Construct: strongly expressing FLAG-tagged full-length hITK in Sf9 cells; FLAG; made in house; host or cells: Sf9 insect cells (ITK); Escherichia coli (GST-SLP76 substrate)
Experiment: ITK inhibitory activity (HTRF kinase assay, biotinylated GST-SLP76 substrate)
Format: biochemical
Conditions: IC50 calculated from the 2 test compound concentrations sandwiching 50% ITK inhibitory rate
pIC50: −log10 of the molar value.
Decision: pIC50 >= 8 yields met, all other cases yield not met.

Check out these entries, answers already filled in.
[[record]]
molecule = "CC1(C)CCc2c(-c3cc4ccc(N(CCO)C(=O)CC5CCCOC5)cc4[nH]3)n[nH]c2C1 (stereo not drawn)"
subject_of_test = "hITK enzyme (FLAG-tagged full-length hITK) (Homo sapiens, UniProt Q08881)"
assigned_label = "met"

[[record]]
molecule = "CN(C(=O)Cn1cccn1)c1ccc2cc(-c3n[nH]c4c3CCC(C)(C)C4)[nH]c2c1"
subject_of_test = "hITK enzyme (FLAG-tagged full-length hITK) (Homo sapiens, UniProt Q08881)"
assigned_label = "met"

[[record]]
molecule = "CN(C(=O)CN1CCNC1=O)c1ccc2cc(-c3n[nH]c4c3CCC(C)(C)C4)[nH]c2c1"
subject_of_test = "hITK enzyme (FLAG-tagged full-length hITK) (Homo sapiens, UniProt Q08881)"
assigned_label = "met"

[[record]]
molecule = "COC(=O)N(C)CC(=O)N(C)c1ccc2cc(-c3n[nH]c4c3CCC(C)(C)C4)[nH]c2c1"
subject_of_test = "hITK enzyme (FLAG-tagged full-length hITK) (Homo sapiens, UniProt Q08881)"
assigned_label = "met"

[[record]]
molecule = "CC1(C)CCc2c(-c3cc4ccc(N5CCCC5=O)cc4[nH]3)n[nH]c2C1"
subject_of_test = "hITK enzyme (FLAG-tagged full-length hITK) (Homo sapiens, UniProt Q08881)"
assigned_label = "not met"

[[record]]
molecule = "CN(C(=O)CN1CC(O)CC1=O)c1ccc2cc(-c3n[nH]c4c3CCC(C)(C)C4)[nH]c2c1 (stereo not drawn)"
subject_of_test = "hITK enzyme (FLAG-tagged full-length hITK) (Homo sapiens, UniProt Q08881)"
assigned_label = "met"

[[record]]
molecule = "CN(C(=O)CN1CCCCC1=O)c1ccc2cc(-c3n[nH]c4c3CCC(C)(C)C4)[nH]c2c1"
subject_of_test = "hITK enzyme (FLAG-tagged full-length hITK) (Homo sapiens, UniProt Q08881)"
assigned_label = "met"

[[record]]
molecule = "CON(C)C(=O)c1ccc2[nH]c(-c3n[nH]c4c3CCC(C)(C)C4)cc2c1"
subject_of_test = "hITK enzyme (FLAG-tagged full-length hITK) (Homo sapiens, UniProt Q08881)"
assigned_label = "not met"


hey, is pIC50 for this one >= 8? COC1CCC(C(=O)N(C)c2ccc3cc(-c4n[nH]c5c4CCC(C)(C)C5)[nH]c3c2)CC1 (stereo not drawn)
met

# check: pIC50 of COCC(C)NC(=O)c1ccc2cc(-c3n[nH]c4c3CCC(C)(C)C4)[nH]c2c1 (stereo not drawn) is greater than or equal to 8
not met

Could you tell me if the measured pIC50 of `CN(C(=O)c1ccc2[nH]c(-c3n[nH]c4c3CCC(C)(C)C4)cc2c1)c1ccccc1` reaches 8 or more?
not met

Hello, I need to know if `CO[C@H]1CC[C@@H](C(=O)N(C)c2ccc3cc(-c4n[nH]c5c4CCC(C)(C)C5)[nH]c3c2)CC1` has measured pIC50 not below 8. Thanks!
met

Does CN(C(=O)CC1CCCOC1)c1ccc2cc(-c3n[nH]c4c3CCC(C)(C)C4)[nH]c2c1 (stereo not drawn) have a reported pIC50 of at least 8?
met

Does `CCN(C(=O)[C@H](C)N1CCOCC1)c1ccc2cc(-c3n[nH]c4c3CCC(C)(C)C4)[nH]c2c1` have a reported pIC50 of at least 8?
met

Check if pIC50 >= 8 (inclusive). Item: CC(NC(=O)c1ccc2cc(-c3n[nH]c4c3CCC(C)(C)C4)[nH]c2c1)C(C)(C)C (stereo not drawn)
not met

Could you verify whether the entry `CN(C(=O)Cn1ccnc1)c1ccc2cc(-c3n[nH]c4c3CCC(C)(C)C4)[nH]c2c1` shows pIC50 of no less than 8?
met

Has `CN(C(=O)CN1CCOCC1=O)c1ccc2cc(-c3n[nH]c4c3CCC(C)(C)C4)[nH]c2c1` a recorded pIC50 greater than or equal to 8?
met

Is the recorded value of pIC50 equal to or greater than 8 for this molecule? CN(C(=O)OCc1ccccc1)c1ccc2cc(-c3n[nH]c4c3CC(OCc3ccccc3)C(C)(C)C4)[nH]c2c1 (stereo not drawn)
not met

Is pIC50 for `COCCN(C(=O)CN1CCOCC1=O)c1ccc2cc(-c3n[nH]c4c3CCC(C)(C)C4)[nH]c2c1` at or above 8?
met

Kindly determine if pIC50 recorded for `CN(Cc1ccccc1)C(=O)c1ccc2[nH]c(-c3n[nH]c4c3CCC(C)(C)C4)cc2c1` is above or exactly 8.
not met

Does `C[C@@H](C(=O)N(C)c1ccc2cc(-c3n[nH]c4c3CCC(C)(C)C4)[nH]c2c1)N(C)C(=O)C1CC1` have a reported pIC50 of at least 8?
not met

Does the molecule `C[C@@H]1CN(CC(=O)N(C)c2ccc3cc(-c4n[nH]c5c4CCC(C)(C)C5)[nH]c3c2)C(=O)CO1` have recorded pIC50 that is 8 or more?
met

pIC50 >= 8 for CC1(C)CCc2c(-c3cc4ccc(N5CCC(C6CCCCC6)C5=O)cc4[nH]3)n[nH]c2C1 (stereo not drawn) ?
not met

###

Target: hITK enzyme (FLAG-tagged full-length hITK) (Homo sapiens)
Construct: strongly expressing FLAG-tagged full-length hITK in Sf9 cells; FLAG; made in house; host or cells: Sf9 insect cells (ITK); Escherichia coli (GST-SLP76 substrate)
Sequence (Q08881 1-620): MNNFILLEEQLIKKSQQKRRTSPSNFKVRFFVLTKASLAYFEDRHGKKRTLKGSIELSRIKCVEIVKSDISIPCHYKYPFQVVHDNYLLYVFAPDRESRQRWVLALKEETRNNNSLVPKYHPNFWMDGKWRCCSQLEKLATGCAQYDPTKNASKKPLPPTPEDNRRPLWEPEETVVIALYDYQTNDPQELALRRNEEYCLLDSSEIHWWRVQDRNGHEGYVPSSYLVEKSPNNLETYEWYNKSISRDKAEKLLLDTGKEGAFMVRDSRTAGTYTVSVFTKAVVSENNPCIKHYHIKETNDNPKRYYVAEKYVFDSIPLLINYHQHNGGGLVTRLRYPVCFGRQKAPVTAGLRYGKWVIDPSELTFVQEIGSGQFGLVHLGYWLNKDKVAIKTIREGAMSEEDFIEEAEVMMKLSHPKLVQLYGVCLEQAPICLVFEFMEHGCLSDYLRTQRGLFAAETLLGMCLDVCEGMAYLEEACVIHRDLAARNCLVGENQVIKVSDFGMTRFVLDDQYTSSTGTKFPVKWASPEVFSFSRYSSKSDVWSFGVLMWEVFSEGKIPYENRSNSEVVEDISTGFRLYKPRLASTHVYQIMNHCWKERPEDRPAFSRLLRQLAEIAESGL
Experiment: ITK inhibitory activity (HTRF kinase assay, biotinylated GST-SLP76 substrate)
Type: biochemical
Details: IC50 calculated from the 2 test compound concentrations sandwiching 50% ITK inhibitory rate
MEASURED ATTRIBUTE: IC50 (nM)
Numbers only, in nM.

Guide cases for IC50, answers given:
[[record]]
compound = "COCC(O)C(=O)N(C)c1ccc2cc(-c3n[nH]c4c3CCC(C)(C)C4)[nH]c2c1 (stereo not shown)"
subject_of_test = "hITK enzyme (FLAG-tagged full-length hITK) (Homo sapiens)"
numeric_value = 8

[[record]]
compound = "CO[C@@H]1CCCN(C(C)C(=O)N(C)c2ccc3cc(-c4n[nH]c5c4CCC(C)(C)C5)[nH]c3c2)C1 (stereo partly shown)"
subject_of_test = "hITK enzyme (FLAG-tagged full-length hITK) (Homo sapiens)"
numeric_value = 6

[[record]]
compound = "CC(C)CC(=O)N(C)c1ccc2cc(-c3n[nH]c4c3CCC(C)(C)C4)[nH]c2c1"
subject_of_test = "hITK enzyme (FLAG-tagged full-length hITK) (Homo sapiens)"
numeric_value = 6


Indicate its recorded IC50; the compound in question is `COC1CCN(CC(=O)N(C)c2ccc3cc(-c4n[nH]c5c4CCC(C)(C)C5)[nH]c3c2)CC1`
8

###

For each of the molecules below, state its IC50.
Target: hITK enzyme (FLAG-tagged full-length hITK) (Homo sapiens)
Construct: strongly expressing FLAG-tagged full-length hITK in Sf9 cells; FLAG; made in house; host or cells: Sf9 insect cells (ITK); Escherichia coli (GST-SLP76 substrate)
Experiment: ITK inhibitory activity (HTRF kinase assay, biotinylated GST-SLP76 substrate)
Type: biochemical
Details: IC50 calculated from the 2 test compound concentrations sandwiching 50% ITK inhibitory rate
Description: (1) Preparation of hITK Enzyme hITK enzyme was prepared by strongly expressing FLAG-tagged full-length hITK in Sf9 cells, and purifying same by anti-FLAG antibody column. (2) Preparation of biotinylated GST-SLP76 […] The Ratio (fluorescence intensity at 665 nm/fluorescence intensity at 620 nm×10000) of each test compound was calculated from the measured fluorescence intensity. […]
Form entry: enter the amount, then its unit.

[[record]]
item_smiles = "CN(C(=O)CC(C)(C)O)c1ccc2cc(-c3n[nH]c4c3CCC(C)(C)C4)[nH]c2c1"
measured_attribute = "IC50"
result = "4 nM"

[[record]]
item_smiles = "CN(CC(=O)N(C)c1ccc2cc(-c3n[nH]c4c3CCC(C)(C)C4)[nH]c2c1)C(=O)OCc1ccccc1"
measured_attribute = "IC50"
result = "4 nM"


Kindly indicate its recorded IC50. Item: `CN(C)CCN(C(=O)CC1CCCCC1)c1ccc2cc(-c3n[nH]c4c3CCC(C)(C)C4)[nH]c2c1`
4 nM
